Tested on: RARg:RXRa (NR concentration 270 nM, RXRa partner concentration 90 nM)
assay.method.text: PBM binding z-score (relative to random genomic background probes); higher = stronger binding; sequences stand for … in GC…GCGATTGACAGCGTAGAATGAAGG
The sequences listed here are annotated with their PBM binding z-score.
Give the figure only, with no unit attached.

>  <query.sequence>
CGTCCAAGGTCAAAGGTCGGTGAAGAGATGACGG

>  <PBM binding z-score>
7.18

$$$$
>  <query.sequence>
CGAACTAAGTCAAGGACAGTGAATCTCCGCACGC

>  <PBM binding z-score>
0.0358

$$$$

PBM binding z-score measured on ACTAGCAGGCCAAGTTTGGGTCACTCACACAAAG = 2.62

PBM binding z-score measured on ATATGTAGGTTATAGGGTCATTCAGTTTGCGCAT = 4.28

PBM binding z-score measured on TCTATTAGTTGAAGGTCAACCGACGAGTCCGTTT = 4.22

PBM binding z-score measured on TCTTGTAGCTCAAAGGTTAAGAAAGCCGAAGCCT = 1.16

Where these numbers come from: the supplement of paper PMC6555819
